FYI, the data here is from the supplement of paper PMC7287046.

test system: SNB75; assay: Loewe synergy score (Combenefit); higher = more synergy; extreme values may be limits of the assay; conditions: exposure time: 72 h
measure-name: Loewe synergy score

* C[C@@H](Oc1cc(-c2cnn(C3CCNCC3)c2)cnc1N)c1c(Cl)ccc(F)c1Cl [Crizotinib] + C=CCc1cccc(/C=N/NC(=O)CN2CCN(Cc3ccccc3)CC2)c1O [PAC-1] | 0.297
* C[C@@H](Oc1cc(-c2cnn(C3CCNCC3)c2)cnc1N)c1c(Cl)ccc(F)c1Cl [Crizotinib] + CCOc1nc(NC(=O)Cc2cc(OC)ccc2OC)cc(N)c1C#N [JNK inhibitor VIII] | 4.28
* CC(=O)O[C@@]12CO[C@@H]1C[C@H](O)[C@@]1(C)C(=O)[C@H](O)C3=C(C)[C@@H](OC(=O)[C@H](O)[C@@H](NC(=O)OC(C)(C)C)c4ccccc4)C[C@@](O)([C@@H](OC(=O)c4ccccc4)[C@H]21)C3(C)C [Docetaxel] + C#Cc1cccc(Nc2ncnc3cc(OCCOC)c(OCCOC)cc23)c1 [Erlotinib] | 5.52
* Nc1ccn([C@@H]2O[C@H](CO)[C@@H](O)C2(F)F)c(=O)n1 [Gemcitabine] + C[C@@H](Oc1cc(-c2cnn(C3CCNCC3)c2)cnc1N)c1c(Cl)ccc(F)c1Cl [Crizotinib] | 5.91

* * *

Measured Loewe synergy score, listed per entry.
system: U118; assay: Loewe synergy score (Combenefit); higher = more synergy; extreme values may be limits of the assay; details: exposure time: 72 h
measure-name: Loewe synergy score

• CO[C@H]1C[C@@H]2CC[C@@H](C)[C@@](O)(O2)C(=O)C(=O)N2CCCC[C@H]2C(=O)O[C@H]([C@H](C)C[C@@H]2CC[C@@H](O)[C@H](OC)C2)CC(=O)[C@H](C)/C=C(\C)[C@@H](O)[C@@H](OC)C(=O)[C@H](C)C[C@H](C)/C=C/C=C/C=C/1C [Rapamycin] + Cc1cc([C@@H](C)Nc2ccccc2C(=O)O)c2nc(N3CCOCC3)cc(=O)n2c1 [AZD6482] = 2.56
• Nc1ccn([C@@H]2O[C@H](CO)[C@@H](O)C2(F)F)c(=O)n1 [Gemcitabine] + C=CCc1cccc(/C=N/NC(=O)CN2CCN(Cc3ccccc3)CC2)c1O [PAC-1] = 0
• CO[C@H]1C[C@@H]2CC[C@@H](C)[C@@](O)(O2)C(=O)C(=O)N2CCCC[C@H]2C(=O)O[C@H]([C@H](C)C[C@@H]2CC[C@@H](O)[C@H](OC)C2)CC(=O)[C@H](C)/C=C(\C)[C@@H](O)[C@@H](OC)C(=O)[C@H](C)C[C@H](C)/C=C/C=C/C=C/1C [Rapamycin] + CCOc1nc(NC(=O)Cc2cc(OC)ccc2OC)cc(N)c1C#N [JNK inhibitor VIII] = 1.75

* * *

tested on: SNB75; assay: HSA synergy score (Combenefit); higher = more synergy; conditions: exposure time: 72 h
Measured HSA synergy score, listed per entry.
measure-name: HSA synergy score

• Nc1ccn([C@@H]2O[C@H](CO)[C@@H](O)C2(F)F)c(=O)n1 [Gemcitabine] + Cc1cc([C@@H](C)Nc2ccccc2C(=O)O)c2nc(N3CCOCC3)cc(=O)n2c1 [AZD6482] = 4.1
• Nc1ccn([C@@H]2O[C@H](CO)[C@@H](O)C2(F)F)c(=O)n1 [Gemcitabine] + CCOc1nc(NC(=O)Cc2cc(OC)ccc2OC)cc(N)c1C#N [JNK inhibitor VIII] = 5.13
• C#Cc1cccc(Nc2ncnc3cc(OCCOC)c(OCCOC)cc23)c1 [Erlotinib] + N#CC(c1ccnc(NCCc2cccnc2)n1)c1nc2ccccc2s1 [AS601245] = 1.2
